test system: MDCK-MDR; test: MDCK-MDR transport (apical to basal); assay type: in vitro ADME
Would you kindly list % MDCK-MDR transport (Apical to Basal) for each of these compounds?

The value of % MDCK-MDR transport (Apical to Basal) measured for the compound "CC(C)(C)NC(=O)C1(c2ccccc2)CCN(c2ncnc3c2nc(-c2ccccc2Cl)n3-c2ccc(Cl)cc2)CC1" turned out to be <1%

The value of % MDCK-MDR transport (Apical to Basal) measured for the compound "CC(C)(C)OC(=O)NC1(c2ccccc2)CCN(c2ncnc3c2nc(-c2ccccc2Cl)n3-c2ccc(Cl)cc2)CC1" turned out to be <1%

The value of % MDCK-MDR transport (Apical to Basal) measured for the compound CS(=O)(=O)NCC1CCC(CNc2ncnc3c2nc(-c2ccccc2Cl)n3-c2ccc(Cl)cc2)CC1 (centres unmarked) turned out to be >50%

The value of % MDCK-MDR transport (Apical to Basal) measured for the compound "CC(C)(C)NC(=O)NC1(c2ccccc2)CCN(c2ncnc3c2nc(-c2ccccc2Cl)n3-c2ccc(Cl)cc2)CC1" turned out to be <1%

The value of % MDCK-MDR transport (Apical to Basal) measured for the compound "NC1(c2ccccc2)CCN(c2ncnc3c2nc(-c2ccccc2Cl)n3-c2ccc(Cl)cc2)CC1" turned out to be <1%

The value of % MDCK-MDR transport (Apical to Basal) measured for the compound "CS(=O)(=O)NC1(c2ccccc2)CCN(c2ncnc3c2nc(-c2ccccc2Cl)n3-c2ccc(Cl)cc2)CC1" turned out to be <1%

The value of % MDCK-MDR transport (Apical to Basal) measured for the compound "CC(=O)NC1(c2ccccc2)CCN(c2ncnc3c2nc(-c2ccccc2Cl)n3-c2ccc(Cl)cc2)CC1" turned out to be 6%

The value of % MDCK-MDR transport (Apical to Basal) measured for the compound "NC(=O)C1(c2ccccc2)CCN(c2ncnc3c2nc(-c2ccccc2Cl)n3-c2ccc(Cl)cc2)CC1" turned out to be 5.6 ± 2.4%

Numbers sourced from patent US9187480B2.
